// provenance: patent US12162861B2

Target: human D3R (Homo sapiens, UniProt P35462)
Construct: expressed in transfected cells; host or cells: HEK293
Sequence (P35462 whole entry): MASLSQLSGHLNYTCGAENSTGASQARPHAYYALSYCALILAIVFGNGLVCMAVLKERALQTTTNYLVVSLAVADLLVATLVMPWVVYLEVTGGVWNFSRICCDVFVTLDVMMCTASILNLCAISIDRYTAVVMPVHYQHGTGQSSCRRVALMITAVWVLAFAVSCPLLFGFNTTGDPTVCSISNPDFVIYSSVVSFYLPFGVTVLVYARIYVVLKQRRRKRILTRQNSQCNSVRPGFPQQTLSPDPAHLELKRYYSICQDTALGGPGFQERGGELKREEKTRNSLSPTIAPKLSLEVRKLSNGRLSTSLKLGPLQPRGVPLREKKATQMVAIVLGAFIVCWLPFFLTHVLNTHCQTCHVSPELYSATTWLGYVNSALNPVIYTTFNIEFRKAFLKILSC
Experiment: Radioligand competition binding, [3H]N-methylspiperone, D3R
Conditions: Table 1A; ratio of Ki values
Protocol: Binding at dopamine D2-like receptors was determined using previously described methods. […] Radioligand competition binding experiments were conducted using thawed membranes. […] Nonspecific binding was determined using 10 μM butaclamol (Sigma-Aldrich, St. Louis, MO) and total binding was determined with 30% DMSO vehicle. […] Reported Ki values were determined from least three independent experiments.
measurementKind: D4/D3

1. CCc1cccc(N2CCN(CC(O)CCNC(=O)c3cn4ccccc4n3)CC2)c1Cl (stereo not shown) [Compound 23] ... 2671
2. CCc1cccc(N2CCN(C/C=C/CNC(=O)c3nc(C)c[nH]3)CC2)c1Cl [Compound 35] ... 393
3. CCc1cc(Cl)c(OC)c(N2CCN(CC(O)CCNC(=O)c3cc4ccccc4o3)CC2)c1 (stereo not shown) [Compound 31] ... 146
4. CCc1cccc(N2CCN(CCCCNC(=O)c3cc4ccccc4o3)CC2)c1Cl [Compound 20] ... 2327
5. CCc1cccc(N2CCN(CCCCNC(=O)c3cn4ccccc4n3)CC2)c1Cl [Compound 22] ... 2482
6. CCc1cccc(N2CCN(CCCCNC(=O)c3cc4ccccc4[nH]3)CC2)c1Cl [Compound 18] ... 2352
7. CCc1c[nH]c(C(=O)NCCCCN2CCN(c3cccc(CC)c3Cl)CC2)n1 [Compound 25] ... 439
8. CCc1cc(Cl)c(OC)c(N2CCN(CCCCNC(=O)c3cc4ccccc4[nH]3)CC2)c1 [Compound 28] ... 3065
9. CCc1cccc(N2CCN(CC(O)CCNC(=O)c3cc4ccccc4o3)CC2)c1Cl (stereo not shown) [Compound 21] ... 2417
10. CCc1cccc(N2CCN(CCC(O)CNC(=O)c3cc4ccccc4[nH]3)CC2)c1Cl (stereo not shown) [Compound 40] ... 1525

###

Catalogue of D4/D3 values
Molecular target: human D3R (Homo sapiens)
Construct: expressed in transfected cells; host or cells: HEK293
Test: Radioligand competition binding, [3H]N-methylspiperone, D3R
Settings: Table 1A; ratio of Ki values
Procedure: Binding at dopamine D2-like receptors was determined using previously described methods. […] Radioligand competition binding experiments were conducted using thawed membranes. […] Nonspecific binding was determined using 10 μM butaclamol (Sigma-Aldrich, St. Louis, MO) and total binding was determined with 30% DMSO vehicle. […] Reported Ki values were determined from least three independent experiments.
measurementKind: D4/D3

1. CCc1cccc(N2CCN(CCCCNC(=O)c3nc(C)c[nH]3)CC2)c1Cl ... 853
2. CCc1cc(Cl)c(OC)c(N2CCN(CCCCNC(=O)c3cc4ccccc4o3)CC2)c1 ... 224
3. CCc1cccc(N2CCN(CCCCNC(=O)c3c(C)nc4sccn34)CC2)c1Cl ... 152
4. CCc1cccc(N2CCN(CC(O)CCNC(=O)c3nc(C)c[nH]3)CC2)c1Cl (stereo not shown) ... 175

###

Biological target: human D3R (Homo sapiens)
pKi: −log10 of the molar value.
measurementKind: pKi

1. CCc1cc(Cl)c(OC)c(N2CCN(CC(O)CCNC(=O)c3cc4ccccc4[nH]3)CC2)c1 (racemic) ... 8.20

###

Listed here are compounds together with their documented D4/D2.
Molecular target: human D2R (Homo sapiens, UniProt P14416)
Construct: expressed in transfected cells; host or cells: HEK293
Sequence (P14416 whole entry): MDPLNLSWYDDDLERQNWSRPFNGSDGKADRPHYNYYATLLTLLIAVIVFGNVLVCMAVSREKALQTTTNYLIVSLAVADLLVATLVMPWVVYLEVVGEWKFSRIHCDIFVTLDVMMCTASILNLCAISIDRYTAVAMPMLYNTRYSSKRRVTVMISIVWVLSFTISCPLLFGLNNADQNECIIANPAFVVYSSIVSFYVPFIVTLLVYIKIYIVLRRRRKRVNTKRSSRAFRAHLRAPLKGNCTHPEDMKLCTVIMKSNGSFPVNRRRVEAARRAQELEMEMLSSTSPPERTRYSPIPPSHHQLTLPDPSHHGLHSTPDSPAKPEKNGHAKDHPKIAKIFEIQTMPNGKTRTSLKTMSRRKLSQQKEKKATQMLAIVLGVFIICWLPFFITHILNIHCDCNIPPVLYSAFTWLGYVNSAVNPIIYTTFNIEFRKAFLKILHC
Experiment: Radioligand competition binding, [3H]N-methylspiperone, D2R
Conditions: Table 1A; ratio of Ki values
measurementKind: D4/D2

1) CCc1cc(Cl)c(OC)c(N2CCN(CCCCNC(=O)c3cc4ccccc4[nH]3)CC2)c1 [Compound 28] ... 38
2) CCc1cc(Cl)c(OC)c(N2CCN(CCCCNC(=O)c3cc4ccccc4o3)CC2)c1 [Compound 30] ... 5.2
3) CCc1cccc(N2CCN(CC(O)CCNC(=O)c3cc4ccccc4o3)CC2)c1Cl (centres unmarked) [Compound 21] ... 15
4) CCc1cccc(N2CCN(CCCCNC(=O)c3c(C)nc4sccn34)CC2)c1Cl [Compound 24] ... 30.8
5) CCc1cccc(N2CCN(CC(O)CCNC(=O)c3nc(C)c[nH]3)CC2)c1Cl (centres unmarked) [Compound 27] ... 13.1
6) CCc1cccc(N2CCN(CCCCNC(=O)c3nc(C)c[nH]3)CC2)c1Cl [Compound 26] ... 43.4
7) CCc1cccc(N2CCN(C/C=C/CNC(=O)c3nc(C)c[nH]3)CC2)c1Cl [Compound 35] ... 31.2
8) CCc1cc(Cl)c(OC)c(N2CCN(CC(O)CCNC(=O)c3cc4ccccc4o3)CC2)c1 (centres unmarked) [Compound 31] ... 3.3
9) CCc1cccc(N2CCN(CCCCNC(=O)c3cn4ccccc4n3)CC2)c1Cl [Compound 22] ... 145.2
10) CCc1cccc(N2CCN(CCCCNC(=O)c3cc4ccccc4[nH]3)CC2)c1Cl [Compound 18] ... 61
11) CCc1cccc(N2CCN(CCC(O)CNC(=O)c3cc4ccccc4[nH]3)CC2)c1Cl (centres unmarked) [Compound 40] ... 44.7
12) CCc1cccc(N2CCN(CC(O)CCNC(=O)c3cn4ccccc4n3)CC2)c1Cl (centres unmarked) [Compound 23] ... 58.5
13) CCc1cccc(N2CCN(CCCCNC(=O)c3cc4ccccc4o3)CC2)c1Cl [Compound 20] ... 56
14) CCc1c[nH]c(C(=O)NCCCCN2CCN(c3cccc(CC)c3Cl)CC2)n1 [Compound 25] ... 40.0
